cytotoxicity at 70.5 h for assorted compounds
assay: Human HepG2 cell viability assay in 384 well format; format: toxicity, cell-based; set-up: dose 125 nL, time 70.5 hour; concentration not given beside the values; settings: HepG2 cells, read-out: Inhibition
Respond with the bare value in %.

Sample answers from the record:
Prompt line: Record request: cytotoxicity at 70.5 h value, item `CCn1cc(S(=O)(=O)Nc2nc3c(s2)CCCC3)cn1`
Response line: -5.28

Prompt line: Record request: cytotoxicity at 70.5 h value, item `CNC(=O)c1ccc(CN(C(=O)c2scnc2C)C2CC2)cc1`
Response line: 29.9

Others:
Prompt line: Record request: cytotoxicity at 70.5 h value, item `O=C(NCCOc1ccccc1)Nc1cc(C(F)(F)F)c[nH]c1=O`
Response line: -1.52

Prompt line: Record request: cytotoxicity at 70.5 h value, item `O=C(NCCNc1ncccn1)C1CCN(c2ncccn2)CC1`
Response line: -10.8

Prompt line: Record request: cytotoxicity at 70.5 h value, item `CC(C)C[C@@H]1N[C@H](C(=O)NC(C)C)Cc2c[nH]c3cccc1c23`
Response line: -1.24

Prompt line: Record request: cytotoxicity at 70.5 h value, item OC(CNCc1nnc2ccccn12)c1ccc2c(c1)OCO2 (configuration not stated)
Response line: -8

Prompt line: Record request: cytotoxicity at 70.5 h value, item `COc1ccc(CNCc2c(C(C)C)nn(C)c2N(C)C)cn1`
Response line: 0.065

Prompt line: Record request: cytotoxicity at 70.5 h value, item `O=C(CCc1nnc2ccccn2c1=O)NCc1ccc2c(c1)OCO2`
Response line: 25.1

Prompt line: Record request: cytotoxicity at 70.5 h value, item Cc1cnc(C)c(N2CCN(CC3CCCO3)CC2)n1 (configuration not stated)
Response line: -6.94

Prompt line: Record request: cytotoxicity at 70.5 h value, item `O=S(=O)(CCCS(=O)(=O)c1ccc2c(c1)OCCCO2)c1ccccc1`
Response line: -7.8

Prompt line: Record request: cytotoxicity at 70.5 h value, item `Cc1cc(-c2cccc(C(=O)O)c2)nc(C2CCN(C(C)C)CC2)n1`
Response line: -3.8

Prompt line: Record request: cytotoxicity at 70.5 h value, item `CN(C)c1ccc(-c2nnc([C@H]3CCN(C4CCCCC4)C3)o2)cc1`
Response line: -4.32

Prompt line: Record request: cytotoxicity at 70.5 h value, item `O=C(O)CCc1nc2nccc(-c3ccc(F)cc3)n2n1`
Response line: 20.1

Prompt line: Record request: cytotoxicity at 70.5 h value, item `CSCC[C@H](NC(=O)Cn1ccc2c(Br)cccc21)C(=O)O`
Response line: -21.8

Prompt line: Record request: cytotoxicity at 70.5 h value, item CC(C)CC(CCO)CNC(=O)N1CCCC1(C)C (configuration not stated)
Response line: 2.81

Prompt line: Record request: cytotoxicity at 70.5 h value, item CC(C)N(C)CC(=O)N1CCCC(c2ccc(C(=O)O)cc2)C1 (configuration not stated)
Response line: -5.3

Prompt line: Record request: cytotoxicity at 70.5 h value, item CCCNC(=O)C[S+]([O-])Cc1csc(C2CCCCC2)n1 (configuration not stated)
Response line: -10.9

----------
assay: Human HepG2 cell viability assay in 384 well format; assay type: toxicity, cell-based; parameters: dose 125 nL, time 70.5 hour; concentration not given beside the values; conditions: HepG2 cells, read-out: Inhibition
measureName: cytotoxicity at 70.5 h (%)
Respond with the bare value in %.

Sample answers from the record:
Prompt line: Record request: cytotoxicity at 70.5 h value, item O=C(c1ccnc(-n2cnnc2)c1)N1CCCC2(CCNC2)C1 (stereo not drawn)
Response line: -9.32

Prompt line: Record request: cytotoxicity at 70.5 h value, item Cc1nnc(NC(=O)CN2CCCC(Cn3cncn3)C2)s1 (stereo not drawn)
Response line: -1.69

Prompt line: Record request: cytotoxicity at 70.5 h value, item `Cn1cc(C[C@H]2[C@H](N3CCOCC3)CCN2C2CCOCC2)cn1`
Response line: -13.7

Others:
Prompt line: Record request: cytotoxicity at 70.5 h value, item `CN(Cc1ccco1)Cc1cncc2c1CCN(S(C)(=O)=O)C2`
Response line: -8.46

Prompt line: Record request: cytotoxicity at 70.5 h value, item `Cc1cccc(CNC(=O)Nc2cc(C(F)(F)F)c[nH]c2=O)n1`
Response line: -6.24

Prompt line: Record request: cytotoxicity at 70.5 h value, item CC(=O)N1CCN(Cc2ccc(C)o2)CC2(CC(=O)N(C)C2)C1 (stereo not drawn)
Response line: -4.13

Prompt line: Record request: cytotoxicity at 70.5 h value, item `COC[C@]1(O)CCN(Cc2cnc(N3CCOCC3)nc2)CC1(C)C`
Response line: -14.6

Prompt line: Record request: cytotoxicity at 70.5 h value, item `CN(C)C(=O)NC[C@H]1OC[C@@H]2CCN(Cc3ccoc3)C[C@@H]21`
Response line: 52.3

Prompt line: Record request: cytotoxicity at 70.5 h value, item CCC(O)(CNCc1ccncc1)c1ccc(Br)cc1 (stereo not drawn)
Response line: 1.46

Prompt line: Record request: cytotoxicity at 70.5 h value, item `CC(=O)N[C@@H]1CN(Cc2ccccc2-n2nc(C)cc2C)C[C@H]1C(C)C`
Response line: -7.15

Prompt line: Record request: cytotoxicity at 70.5 h value, item CCN(CC)C(=O)C1CCCN(c2ncnc3oc(C)nc23)C1 (stereo not drawn)
Response line: -5.71

Prompt line: Record request: cytotoxicity at 70.5 h value, item `O=S(=O)(c1ccc(Cl)cc1)N1CCN(CCCn2ccnc2)CC1`
Response line: -1.12

Prompt line: Record request: cytotoxicity at 70.5 h value, item `Cc1cnccc1-c1cnn(CCNC(=O)c2cccnc2)c1C1CC1`
Response line: -5.95
